System: SW-480 (human colon cancer cells)
Assay: MTT inhibition of tumor cell growth, SW-480
Type: cell-based
Conditions: Homo sapiens, SW480, 48 h, Table 6, 7-carbonyl derivatives, read-out: IC50 SW-480, 7-carbonyl derivatives
IC50 values for the molecules below.
Write the value in nM as a bare number.

C=C1C(=O)C23CC[C@H]1CC2[C@]1(COS(C)(=O)=O)CCC[C@@](C)(COS(C)(=O)=O)C1CC3=O (stereo partly shown) [Compound 73a]; 2570
C=C1C(=O)C23CC[C@H]1CC2[C@@]12CCC[C@@](C)(COS(=O)OC1)C2CC3=O (stereo partly shown) [Compound 42]; 1830

Looking up C=C1C(=O)C23CC[C@H]1CC2[C@]1(COC(C)=O)CCC[C@@](C)(COC(C)=O)C1CC3=O (stereo partly shown) [Compound 47] , I see its IC50 listed as 3670

Looking up C=C1C(=O)[C@]23CC[C@H]1CC2[C@@]12CCC[C@@](C)(COC1)C2CC3=O (stereo partly shown) [Compound 28] , I see its IC50 listed as 2060

Looking up C=C1C(=O)C23CC[C@H]1CC2[C@]1(COC(C)=O)CCC[C@@](C)(COC(=O)c2cccs2)C1CC3=O (stereo partly shown) [Compound 66] , I see its IC50 listed as 700

Looking up C=C1C(=O)C23CC[C@H]1CC2[C@]1(COC(=O)c2ccccc2)CCC[C@@](C)(COC(=O)c2ccccc2)C1CC3=O (stereo partly shown) [Compound 73d] , I see its IC50 listed as 620

Looking up C=C1C(=O)C23CC[C@H]1CC2[C@]1(COC(=O)CC)CCC[C@@](C)(COC(=O)CC)C1CC3=O (stereo partly shown) [Compound 73c] , I see its IC50 listed as 690

Looking up C=C1C(=O)[C@]23CC[C@H]1CC2[C@@]12CCC[C@@](C)(CO[C@H]1OC)C2CC3=O (stereo partly shown) [Compound 22] , I see its IC50 listed as 2560

Looking up C=C1C(=O)C23CC[C@H]1CC2[C@]1(COC(=O)c2cccs2)CCC[C@@](C)(COC(=O)c2cccs2)C1CC3=O (stereo partly shown) [Compound 64] , I see its IC50 listed as 710

Looking up C=C1C(=O)[C@]23CC[C@H]1CC2[C@@]12CCC[C@@](C)(COC1=O)C2CC3=O (stereo partly shown) [Compound 7] , I see its IC50 listed as 2630

* * *

Test system: MCF-7 (human breast cancer cells)
Test: MTT inhibition of tumor cell growth, MCF-7
Format: cell-based
Details: Table 3, single Michael reaction acceptor, modified lactonic ring, 48 h
Protocol: 1. Inoculating cells: the culture medium DMEM or RMPI1640 containing 10% fetal bovine serum was used to prepare a single cell suspension, and the cell suspension was inoculated to a 96-well plate at 5000-10000 cells per well (100 μl for each well); Adherent cells were inoculated and cultured for 12 h in advance. […] 4. Colorimetric assay: ELISA Reader (Bio-Rad 680) was used to obtain the light absorption for each well at a wavelength of 595 nm, the results were recorded. […]
Measured Attribute: IC50 (µM)
Write the value in µM as a bare number.

Looking up [NH2][Pt]([NH2])([Cl])[Cl] [cis-DDP, reference compound] , I see its IC50 listed as 15.9

* * *

Tested on: SMMC-7721 (human hepatoma cells)
Assay: MTT inhibition of tumor cell growth, SMMC-7721
Format: cell-based
Conditions: Homo sapiens, SMMC-7721, 48 h, Table 2, derivatives having potential Michael reaction acceptor
IC50 values for the molecules below.
Write the value in µM as a bare number.

Here is how some molecules turned out for IC50.
C=C1C(=O)C23CC[C@H]1CC2[C@]1(COC(C)=O)CCC[C@@](C)(COC(C)=O)C1[C@H](COC(C)=O)C3=O (stereo partly drawn); 15.4
C=C1C(=O)C23CC[C@H]1CC2[C@]1(COC(C)=O)CCC[C@@](C)(COC(C)=O)C1[C@H](COS(C)(=O)=O)C3=O (stereo partly drawn); 14

Looking up C=C1C(=O)C23CC[C@H]1CC2[C@]1(COC(C)=O)CCC[C@@](C)(COC(C)=O)C1CC3=O (stereo partly drawn) , I see its IC50 listed as 3.91

Looking up C=C1C(=O)C23CC[C@H]1CC2[C@]1(COC(C)=O)CCC[C@@](C)(COC(C)=O)C1[C@H](CN1CCOCC1)C3=O (stereo partly drawn) , I see its IC50 listed as 10.8

Looking up C=C1C(=O)[C@@]23CC[C@@H](CC2[C@@]24CCC[C@@](C)(COC2=O)C14)C(=C)[C@@H]3O (stereo partly drawn) , I see its IC50 listed as 12

* * *

IC50 values for the compounds below.
Tested on: MCF-7 (human breast cancer cells)
Test: MTT inhibition of tumor cell growth, MCF-7
Assay type: cell-based
Conditions: Homo sapiens, MCF7, 48 h, Table 2, derivatives having potential Michael reaction acceptor
Write the value in µM as a bare number.

Here is how some compounds turned out for IC50.
C[C@]12CCC[C@@]3(C(=O)OC1)C1C[C@@H]4CCC1(C(=O)[C@@H]4CN1CCOCC1)[C@H](O)CC23 (stereo partly shown); 5.96
C=C1C(=O)C23CC[C@H]1CC2[C@]1(COC(C)=O)CCC[C@@](C)(COC(C)=O)C1[C@H](CN1CCOCC1)C3=O (stereo partly shown); 4.23
C=C1C(=O)[C@]23CC[C@H]1CC2[C@@]12CCC[C@@](C)(COC1)C2CC3=O (stereo partly shown); 2.85

Summary line: C=C1C(=O)[C@]23CC[C@H]1CC2[C@@]12CCC[C@@](C)(COC1=O)C2C(CN(C)C)C3=O (stereo partly shown) , MCF-7 (human breast cancer cells), reported IC50 = 1.18

* * *

Tested on: SMMC-7721 (human hepatoma cells)
Experiment: MTT inhibition of tumor cell growth, SMMC-7721
Assay type: cell-based
Settings: Homo sapiens, SMMC-7721, 48 h, Table 2, derivatives having potential Michael reaction acceptor
IC50 values for the molecules below.
Write the value in µM as a bare number.

C=C1C(=O)[C@]23CC[C@H]1CC2[C@@]12CCC[C@@](C)(COC1=O)C2[C@H](CN1CCOCC1)C3=O (stereo partly shown); 3.53
C[C@]12CCC[C@@]3(C(=O)OC1)C1C[C@@H]4CCC1(C(=O)[C@H]4CN1CCOCC1)[C@H](O)CC23 (stereo partly shown); 5.97
C=C1C(=O)[C@]23CC[C@H]1CC2[C@@]12CCC[C@@](C)(COC1=O)C2C[C@H]3O (stereo partly shown); 3.96
C=C1C(=O)C23CC[C@H]1CC2[C@]1(COC(C)=O)CCC[C@@](C)(COC(C)=O)C1[C@H](CO)C3=O (stereo partly shown); 6.13
C[C@]12CCC[C@@]3(C(=O)OC1)C1C[C@@H]4CCC1(C(=O)[C@@H]4CN1CCOCC1)[C@H](O)CC23 (stereo partly shown); 13.1

Summary line: C=C1C(=O)[C@]23CC[C@H]1CC2[C@@]12CCC[C@@](C)(COC1=O)C2[C@H](CO)C3=O (stereo partly shown) , SMMC-7721 (human hepatoma cells), reported IC50 = 2.48

Summary line: C=C1C(=O)[C@]23CC[C@H]1CC2[C@@]12CCC[C@@](C)(COC1=O)C2[C@H](SC)C3=O (stereo partly shown) , SMMC-7721 (human hepatoma cells), reported IC50 = 2.41

* * *

Tested on: MCF-7 (human breast cancer cells)
Assay: MTT inhibition of tumor cell growth, MCF-7
Assay type: cell-based
Details: Homo sapiens, MCF7, 48 h, Table 4, derivatives obtained by reduction of the lactonic ring
Measured Attribute: IC50 (nM)
Write the value in nM as a bare number.

Here is how some compounds turned out for IC50.
C=C1C(=O)C23CC[C@H]1CC2[C@]1(COC(C)=O)CCC[C@@](C)(COC(C)=O)C1C[C@H]3O (some centres unmarked); 4820
C=C1C(=O)C23CC[C@H]1CC2[C@]1(CO)CCC[C@@](C)(CO)C1C[C@H]3O (some centres unmarked); 8070
C=C1C(=O)C23CC[C@H]1CC2[C@]1(COS(C)(=O)=O)CCC[C@@](C)(COS(C)(=O)=O)C1CC3=O (some centres unmarked) [Compound 73a]; 2360

Please turn your attention to the following entry.
Looking up C=C1C(=O)C23CC[C@H]1CC2[C@]1(COC(=O)c2cccs2)CCC[C@@](C)(COC(=O)c2cccs2)C1CC3=O (some centres unmarked) , I see its IC50 listed as 670

* * *

System: SW-480 (human colon cancer cells)
Assay: MTT inhibition of tumor cell growth, SW-480
Format: cell-based
Conditions: Homo sapiens, SW480, 48 h, Table 2, derivatives having potential Michael reaction acceptor, read-out: IC50 SW-480
Measured Attribute: pIC50
Note: pIC50 values are expressed as the negative base-10 logarithm of concentration in M.

Here is how some molecules turned out for pIC50.
C[C@]12CCC[C@@]3(C(=O)OC1)C1C[C@@H]4CCC1(C(=O)[C@@H]4CN1CCOCC1)[C@H](O)CC23 (stereo partly drawn); 5.11
C=C1C(=O)[C@]23CC[C@H]1CC2[C@@]12CCC[C@@](C)(COC1=O)C2[C@H](CO)C3=O (stereo partly drawn); 5.55
C=C1C(=O)[C@]23CC[C@H]1CC2[C@@]12CCC[C@@](C)(COC1)C2[C@H](CO)C3=O (stereo partly drawn); 5.82
C=C1C(=O)[C@]23CC[C@H]1CC2[C@@]12CCC[C@@](C)(COC1=O)C2CC3=O (stereo partly drawn); 5.43

Please turn your attention to the following entry.
Summary line: C=C1C(=O)C23CC[C@H]1CC2[C@]1(COC(C)=O)CCC[C@@](C)(COC(C)=O)C1[C@H](COC(C)=O)C3=O (stereo partly drawn) , SW-480 (human colon cancer cells), reported pIC50 = 4.89
